# protocol_notes: in vitro
# Assay type: cell-based
# run_parameters: human
Binary label based on CC50 at 5 days with cut-off 10 µM: below gives Met, not below gives Not met.

Please review the following examples before continuing.
# compound, assigned_label
data = [
    ("O=C(NCc1c(F)cc(F)cc1F)c1cn2c(c(O)c1=O)C(=O)N1[C@H](C2)[C@@H]2C[C@H]1[C@H]1C[C@@H]21 [Compound 9]", "Not met"),
    ("O=C(NCc1ccc(F)cc1F)c1cn2c(c(O)c1=O)C(=O)N1[C@H](C2)[C@@H]2C[C@H]1[C@H]1C[C@@H]21 [Compound 8]", "Met"),
]

-- ask Would you kindly verify if CC50 at 5 days of O=C(NCc1ccc(F)cc1F)c1cn2c(c(O)c1=O)C(=O)N1C(C2)O[C@@H]2C[C@H]1[C@@H]1[C@H]2C1(F)F (stereo partly shown) [Compound 5] is strictly less than 10 µM?
-- reply Not met

-- ask Would you kindly verify if CC50 at 5 days of O=C(N[C@@H](c1ccc(F)cc1F)C(F)(F)F)c1cn2c(c(O)c1=O)C(=O)N1[C@H](C2)O[C@@H]2C[C@H]1[C@H]1C[C@H]12 [Compound 2] is strictly less than 10 µM?
-- reply Met

-- ask Would you kindly verify if CC50 at 5 days of O=C(NCc1c(F)cc(F)cc1F)c1cn2c(c(O)c1=O)C(=O)N1[C@@H]3C[C@@H]([C@H]4C[C@H]43)[C@@H]1C2 [Compound 12] is strictly less than 10 µM?
-- reply Not met

-- ask Would you kindly verify if CC50 at 5 days of O=C(NCc1c(F)cc(F)cc1F)c1cn2c(c(O)c1=O)C(=O)N1[C@@H]3C[C@H](O[C@@H]1C2)[C@H]1C[C@H]13 [Compound 10] is strictly less than 10 µM?
-- reply Met

-- ask Would you kindly verify if CC50 at 5 days of C[C@@H](NC(=O)c1cn2c(c(O)c1=O)C(=O)N1C3CC(O[C@H]1C2)[C@@H]1C[C@H]31)c1ccc(F)cc1F (stereo partly shown) [Compound 4] is strictly less than 10 µM?
-- reply Not met

====

Item-by-item account of CC50 at 5 days
# protocol_notes: in vitro
# Assay type: cell-based
# run_parameters: human
The answer is to be given in µM; state only the numeric part.

Consider the worked cases shown below.
# compound, CC50 at 5 days, µM
rows = [
    ("O=C(NCc1ccc(F)cc1F)c1cn2c(c(O)c1=O)C(=O)N1C(C2)O[C@@H]2C[C@H]1[C@H]1C[C@H]12 (stereo partly drawn)", 14.1),
    ("C[C@@H](NC(=O)c1cn2c(c(O)c1=O)C(=O)N1[C@@H]3C[C@H](O[C@@H]1C2)[C@H]1C[C@H]13)c1ccc(F)cc1F", 4.1),
    ("O=C(N[C@@H](c1ccc(F)cc1F)C(F)(F)F)c1cn2c(c(O)c1=O)C(=O)N1[C@@H]3C[C@H](O[C@@H]1C2)[C@H]1C[C@H]13", 14.1),
    ("O=C(NCc1cc(F)c(F)cc1F)c1cn2c(c(O)c1=O)C(=O)N1C3CC([C@@H]4C[C@H]34)[C@@H]1C2 (stereo partly drawn)", 7.05),
]

-- ask Query CC50 at 5 days for O=C(NCc1c(F)cc(F)cc1F)c1cn2c(c(O)c1=O)C(=O)N1C(C2)O[C@@H]2C[C@H]1[C@H]1C[C@H]12 (stereo partly drawn)
-- reply 11

-- ask Query CC50 at 5 days for O=C(NCc1ccc(F)cc1F)c1cn2c(c(O)c1=O)C(=O)N1[C@@H]3C[C@H](O[C@@H]1C2)[C@H]1C[C@H]13
-- reply 4.83
